system: Candida albicans; test: Antifungal activity against Candida albicans after 16 hrs by microtiter broth dilution method; format: functional
Property: MIC; scope: individual compounds

The cases that follow already have their MIC on record.
Smiles entry	MIC
COc1ccc(-c2csc(/N=C/c3cc(/C=C/C(=O)c4ccc(C)cc4)cc(C(C)(C)C)c3O)n2)cc1OC	> 92.5 µM
CCCc1cc(/C=C/C(=O)c2ccco2)cc(/C=N/c2nc(C(=O)OCC)cs2)c1O	> 102 µM
CCOC(=O)c1csc(/N=C/c2cc(/C=C/C(=O)c3ccc(OC)cc3)cc(C(C)(C)C)c2O)n1	> 102 µM
CCn1cc(C(=O)O)c(=O)c2cc(F)c(N3CCNCC3)cc21	> 33.6 µM
CCOC(=O)c1csc(/N=C/c2cc(/C=C/C(=O)c3cccs3)cc(C(C)(C)C)c2O)n1	> 107 µM

Per the record, COc1ccc(C(=O)/C=C/c2cc(/C=N/c3nc(-c4ccc(OC)c(OC)c4)cs3)c(O)c(C(C)(C)C)c2)cc1 has MIC of > 89.8 µM

Recorded result, CCOC(=O)c1csc(/N=C/c2cc(/C=C/C(=O)c3cccs3)cc(C(C)C)c2O)n1 , MIC: > 110 µM

Value of measured MIC for the entry COc1ccc(-c2csc(/N=C/c3cc(/C=C/C(=O)c4cccs4)cc(C(C)(C)C)c3O)n2)cc1OC : > 93.9 µM

Memo: COc1ccc(C(=O)/C=C/c2cc(/C=N/c3nc(-c4ccc(OC)cc4)cs3)c(O)c(C(C)(C)C)c2)cc1 , reported MIC: > 94.9 µM

Per the records, this compound ( OC(Cn1cncn1)(Cn1cncn1)c1ccc(F)cc1F ) has MIC equal to 0.7 µM
